Would you mind telling me the reported pKi of each entry?
Target: D2 receptor (Rattus norvegicus, UniProt P61169)
Sequence (P61169 whole entry): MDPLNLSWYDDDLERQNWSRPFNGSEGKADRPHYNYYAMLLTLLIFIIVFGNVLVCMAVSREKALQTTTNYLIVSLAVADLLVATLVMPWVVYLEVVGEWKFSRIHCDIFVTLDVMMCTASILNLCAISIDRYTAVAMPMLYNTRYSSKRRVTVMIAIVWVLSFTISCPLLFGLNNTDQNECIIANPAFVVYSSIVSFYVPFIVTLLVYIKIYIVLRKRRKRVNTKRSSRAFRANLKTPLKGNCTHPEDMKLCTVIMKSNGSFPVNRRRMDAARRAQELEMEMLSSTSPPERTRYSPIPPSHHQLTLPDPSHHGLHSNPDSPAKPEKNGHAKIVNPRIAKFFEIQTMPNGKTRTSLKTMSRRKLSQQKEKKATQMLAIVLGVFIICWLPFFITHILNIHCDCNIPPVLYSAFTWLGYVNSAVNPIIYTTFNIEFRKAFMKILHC
Experiment: [3H]Spiperone binding assay for D2-like receptors, rat caudate-putamen membranes
Parameters: from tissue; host or cells: rat caudate-putamen membranes
Settings: rat brain; single-site model; read-out: Ki ± SEM D2 [3H]Spiperone
Experimental: All other Ki values are based on a single-site model. Determination of D3 dopamine receptor affinity and selectivity were performed in membranes prepared from the brains of adult, male Sprague-Dawley rats (Harlan Sprague-Dawley, Indianapolis, Ind.). All compounds were dissolved in 100% ethanol at a concentration of 5 mM. [^3H]Spiperone binding assays. […]
One number for each entry, as −log10 of the molar value.

As a guide, the following entries are already answered.
Param readout= pKi; system= D2 receptor (Rattus norvegicus, UniProt P61169); entry= CCCN(CC[C@H]1CC[C@H](NC(=O)C=Cc2ccccc2)CC1)[C@H]1CCc2nc(N)sc2C1 [Compound 12] ; returns value. 6.48

Param readout= pKi; system= D2 receptor (Rattus norvegicus, UniProt P61169); entry= CCCN(CC[C@H]1CC[C@H](NC(=O)c2cc3ccccc3o2)CC1)[C@H]1CCc2nc(N)sc2C1 [Compound 11] ; returns value. 7.17

Param readout= pKi; system= D2 receptor (Rattus norvegicus, UniProt P61169); entry= Nc1nc2c(s1)C[C@@H](N(CCC1CCCCC1)CC[C@H]1CC[C@H](NC(=O)c3ccc4ccccc4c3)CC1)CC2 [Compound 9] ; returns value. 5.92

Batch request: pKi per item, same order as input.
1. Nc1nc2c(s1)C[C@@H](NCC[C@H]1CC[C@H](NC(=O)c3ccc4ccccc4c3)CC1)CC2 [Compound 10]
2. CC(C)CCN(CC[C@H]1CC[C@H](NC(=O)c2ccc3ccccc3c2)CC1)[C@H]1CCc2nc(N)sc2C1 [Compound 8]

1: 6.17; 2: 6.46

###

Biological target: D3 receptor (Rattus norvegicus, UniProt P19020)
Construct: membranes prepared from the brains of adult, male Sprague-Dawley rats; from tissue; host or cells: rat ventral striatum (nucleus accumbens and olfactory tubercles) membranes
Sequence (P19020 whole entry): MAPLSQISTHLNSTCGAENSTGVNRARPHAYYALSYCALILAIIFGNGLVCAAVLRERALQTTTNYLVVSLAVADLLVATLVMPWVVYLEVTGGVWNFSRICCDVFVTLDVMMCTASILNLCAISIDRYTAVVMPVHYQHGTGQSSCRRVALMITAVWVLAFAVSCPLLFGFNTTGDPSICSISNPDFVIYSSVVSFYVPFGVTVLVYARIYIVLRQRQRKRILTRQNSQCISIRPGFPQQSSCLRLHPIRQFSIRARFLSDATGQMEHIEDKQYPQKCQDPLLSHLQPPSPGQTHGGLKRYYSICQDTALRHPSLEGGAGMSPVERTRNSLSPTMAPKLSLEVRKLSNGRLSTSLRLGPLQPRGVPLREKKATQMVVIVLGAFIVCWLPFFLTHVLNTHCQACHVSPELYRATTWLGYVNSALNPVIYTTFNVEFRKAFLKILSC
Assay: [3H]PD 128907 binding assay for D3 receptors, rat ventral striatum membranes
Details: ratio of Ki values, Table 1
assay.endpoint: Selectivity D1-like/D3

As a guide, the following entries are already answered.
Param item = CCCCN(CC[C@H]1CC[C@H](NC(=O)c2ccc3ccccc3c2)CC1)[C@H]1CCc2nc(N)sc2C1 [Compound 7] ; retrieve measured Selectivity D1-like/D3. >7,000

Param item = COc1ccc2c(c1)CCC1CN(CCC3CCC(NC(=O)c4ccc5ccccc5c4)CC3)CCN21 (stereo not shown) [Compound 4, reference compound] ; retrieve measured Selectivity D1-like/D3. >5000

Param item = CC(C)CCN(CC[C@H]1CC[C@H](NC(=O)c2ccc3ccccc3c2)CC1)[C@H]1CCc2nc(N)sc2C1 [Compound 8] ; retrieve measured Selectivity D1-like/D3. >5,000

Others:
Param item = Nc1nc2c(s1)C[C@@H](NCC[C@H]1CC[C@H](NC(=O)c3ccc4ccccc4c3)CC1)CC2 [Compound 10] ; retrieve measured Selectivity D1-like/D3. >8,000

###

Molecular target: D1-like dopamine receptors
Assay: [3H]SCH 23390 binding assay for D1-like dopamine receptors, rat brain membranes
Details: single-site model, read-out: Ki ± SEM D1-like [3H]SCH23390
Experimental: All other Ki values are based on a single-site model. Determination of D3 dopamine receptor affinity and selectivity were performed in membranes prepared from the brains of adult, male Sprague-Dawley rats (Harlan Sprague-Dawley, Indianapolis, Ind.). All compounds were dissolved in 100% ethanol at a concentration of 5 mM.
assay.endpoint: pKi
Give bare numbers, as −log10 of the molar value.

As a guide, the following entries are already answered.
Param readout= pKi; system= D1-like dopamine receptors; entry= `Nc1nc2c(s1)C[C@@H](NCC[C@H]1CC[C@H](NC(=O)c3ccc4ccccc4c3)CC1)CC2` ; returns value. 4.19

Param readout= pKi; system= D1-like dopamine receptors; entry= `CC(C)CCN(CC[C@H]1CC[C@H](NC(=O)c2ccc3ccccc3c2)CC1)[C@H]1CCc2nc(N)sc2C1` ; returns value. 4.89

Others:
Param readout= pKi; system= D1-like dopamine receptors; entry= `CCCCN(CC[C@H]1CC[C@H](NC(=O)c2ccc3ccccc3c2)CC1)[C@H]1CCc2nc(N)sc2C1` ; returns value. 5.27

###

Would you mind telling me the reported Selectivity D2-like/D3 of each entry?
Target: D3 receptor (Rattus norvegicus, UniProt P19020)
Construct: membranes prepared from the brains of adult, male Sprague-Dawley rats; from tissue; host or cells: rat ventral striatum (nucleus accumbens and olfactory tubercles) membranes
Experiment: [3H]PD 128907 binding assay for D3 receptors, rat ventral striatum membranes
Details: ratio of Ki values, Table 1
Numbers only.

Batch request: Selectivity D2-like/D3 per item, same order as input.
1. Nc1nc2c(s1)C[C@@H](NCC[C@H]1CC[C@H](NC(=O)c3ccc4ccccc4c3)CC1)CC2
2. CCCCN(CC[C@H]1CC[C@H](NC(=O)c2ccc3ccccc3c2)CC1)[C@H]1CCc2nc(N)sc2C1
3. CC(C)CCN(CC[C@H]1CC[C@H](NC(=O)c2ccc3ccccc3c2)CC1)[C@H]1CCc2nc(N)sc2C1

1: 88; 2: 74; 3: 157

###

Molecular target: D3 receptor (Rattus norvegicus, UniProt P19020)
Construct: membranes prepared from the brains of adult, male Sprague-Dawley rats; from tissue; host or cells: rat ventral striatum (nucleus accumbens and olfactory tubercles) membranes
Experiment: [3H]PD 128907 binding assay for D3 receptors, rat ventral striatum membranes
Details: rat brain; single-site model; mean±SEM of three to five determinations; read-out: Ki ± SEM D3 [3H]PD128907
assay.endpoint: log10 Ki (log10 of the value in nM)
Use the decimal logarithm of Ki (nM).

Param item = `Nc1nc2c(s1)C[C@@H](N(CCC1CCCCC1)CC[C@H]1CC[C@H](NC(=O)c3ccc4ccccc4c3)CC1)CC2` ; retrieve measured log10 Ki. 1.36

Param item = `CCCCN(CC[C@H]1CC[C@H](NC(=O)c2ccc3ccccc3c2)CC1)[C@H]1CCc2nc(N)sc2C1` ; retrieve measured log10 Ki. -0.13

Batch request: log10 Ki per item, same order as input.
1. Nc1nc2c(s1)C[C@@H](NCC[C@H]1CC[C@H](NC(=O)c3ccc4ccccc4c3)CC1)CC2
2. CCCN(CCCCNC(=O)c1ccc2ccccc2c1)[C@H]1CCc2nc(N)sc2C1
3. CC(C)CCN(CC[C@H]1CC[C@H](NC(=O)c2ccc3ccccc3c2)CC1)[C@H]1CCc2nc(N)sc2C1

1. 0.88
2. -1.37
3. 0.34

###

Target: D2 receptor (Rattus norvegicus, UniProt P61169)
Assay: [3H]Spiperone binding assay for D2-like receptors, rat caudate-putamen membranes
Design: from tissue; host or cells: rat caudate-putamen membranes
Conditions: rat brain; 2-site fit, high affinity component; read-out: Ki ± SEM D2 [3H]Spiperone, high affinity component (h)
assay.endpoint: pKi
Give bare numbers, as −log10 of the molar value.

Param item = `CCCN(CCCCNC(=O)c1ccc2ccccc2c1)[C@H]1CCc2nc(N)sc2C1` ; retrieve measured pKi. 8.57

Others:
Param item = `CCCCN(CC[C@H]1CC[C@H](NC(=O)c2ccc3ccccc3c2)CC1)[C@H]1CCc2nc(N)sc2C1` ; retrieve measured pKi. 7.26
